# test-system: D(2) dopamine receptor (Rattus norvegicus)
# Sequence (P61169 whole entry): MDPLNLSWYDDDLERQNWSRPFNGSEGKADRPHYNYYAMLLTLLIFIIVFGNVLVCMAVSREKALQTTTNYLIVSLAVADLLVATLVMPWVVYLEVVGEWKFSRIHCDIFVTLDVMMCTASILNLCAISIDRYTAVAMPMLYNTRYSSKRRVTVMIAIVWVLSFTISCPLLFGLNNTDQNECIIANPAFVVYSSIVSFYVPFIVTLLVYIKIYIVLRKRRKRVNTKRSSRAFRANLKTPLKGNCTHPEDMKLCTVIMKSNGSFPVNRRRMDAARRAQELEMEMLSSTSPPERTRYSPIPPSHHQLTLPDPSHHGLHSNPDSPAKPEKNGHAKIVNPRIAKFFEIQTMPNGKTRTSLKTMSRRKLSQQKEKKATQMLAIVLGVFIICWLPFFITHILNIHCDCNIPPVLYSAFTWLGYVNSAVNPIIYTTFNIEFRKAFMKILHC
# method-notes: Displacement of [3H]raclopride from rat dopamine D2 receptor
readout-name: pIC50
Kindly note that pIC50 refers to -log10 of the concentration in mol/L and answer with the value alone.

Some compounds with known pIC50 results, for comparison:
Briefly, pIC50 measured for CN1CCc2cc3c(c4c2C1Cc1cccc(O)c1-4)OCO3 (stereo not given) [PUKATEINE] : 6.22

COc1ccc2c(c1O)Oc1c(OC)ccc3c1[C@H](C2)N(C)CC3 [SARCOCAPNIDINE] yielded pIC50 of 5.70

pIC50 reading for COc1cc2c(cc1O)C[C@H]1c3c(ccc(O)c3O2)CCN1C [BREOGANINE] : 6.70

***
Lookup result for Oc1ccc2c(c1)C[C@H]1NCCc3cc4c(c-2c31)OCO4 [ANOLOBINE] ; measured pIC50: 4.82

// sample COc1cc2c(cc1O)C[C@@H]1NCCc3cc(O)c(OC)c-2c31 [NORBOLDINE] , its pIC50 was 5.17
